STUDY_TARGET: human ether-à-go-go-related gene (hERG) potassium channel (human);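 also: peak tail current of the secondary pulse compared with the same well before compound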
Sequence (Q12809 whole entry, looked up): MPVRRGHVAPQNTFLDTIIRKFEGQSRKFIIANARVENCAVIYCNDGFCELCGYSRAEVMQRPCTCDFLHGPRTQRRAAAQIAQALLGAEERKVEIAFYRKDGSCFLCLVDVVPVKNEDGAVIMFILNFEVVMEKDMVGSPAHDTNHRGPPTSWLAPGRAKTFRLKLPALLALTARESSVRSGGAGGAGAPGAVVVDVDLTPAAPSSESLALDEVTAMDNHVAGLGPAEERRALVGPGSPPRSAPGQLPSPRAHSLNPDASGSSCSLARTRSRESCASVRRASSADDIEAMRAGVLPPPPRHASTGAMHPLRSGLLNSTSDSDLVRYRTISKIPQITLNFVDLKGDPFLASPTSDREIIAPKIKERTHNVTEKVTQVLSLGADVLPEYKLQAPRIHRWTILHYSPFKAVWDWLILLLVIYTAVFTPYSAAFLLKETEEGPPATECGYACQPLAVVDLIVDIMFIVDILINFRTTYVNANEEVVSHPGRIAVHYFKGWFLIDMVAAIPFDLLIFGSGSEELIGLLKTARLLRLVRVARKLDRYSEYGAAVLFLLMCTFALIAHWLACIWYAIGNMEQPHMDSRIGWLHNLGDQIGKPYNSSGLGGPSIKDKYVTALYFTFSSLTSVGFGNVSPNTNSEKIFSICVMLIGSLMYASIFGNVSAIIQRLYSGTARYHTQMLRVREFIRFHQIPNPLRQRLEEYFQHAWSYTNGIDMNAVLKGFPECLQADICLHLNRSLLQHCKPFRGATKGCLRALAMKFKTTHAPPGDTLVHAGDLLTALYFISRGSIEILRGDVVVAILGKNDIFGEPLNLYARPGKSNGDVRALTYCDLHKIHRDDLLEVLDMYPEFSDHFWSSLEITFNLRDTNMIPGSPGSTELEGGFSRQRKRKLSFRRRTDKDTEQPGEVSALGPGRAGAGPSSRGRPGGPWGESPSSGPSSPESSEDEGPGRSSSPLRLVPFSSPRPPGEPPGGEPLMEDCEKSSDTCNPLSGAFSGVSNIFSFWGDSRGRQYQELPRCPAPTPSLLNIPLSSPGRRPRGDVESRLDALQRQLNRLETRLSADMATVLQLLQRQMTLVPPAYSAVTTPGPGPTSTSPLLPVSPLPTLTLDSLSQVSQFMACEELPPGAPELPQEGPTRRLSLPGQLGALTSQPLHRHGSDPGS
ASSAY_REMARKS: primary screen, population patch clamp on CHO cells stably expressing hERG; higher = less effect of the substance
Procedure: Briefly, Chinese hamster ovary (CHO) cells stably expressing the hERG channel were dislodged from tissue culture flasks and dispensed into PPC plates. […] During the recording, background leak currents were estimated by a 100 ms step to -80 mV from an initial holding potential of -70 mV and subtracted from the subsequent current measurement. The campaign was conducted in two phases using slight differences in recording protocol. […]
Out of some 310,000 compounds screened, about 14,000 (4.5%) showed an effect of 50% or more. The effect is printed as a negative number. This excerpt belongs to a sample that is enriched for strong results.
Listed here are compounds together with their documented hERG current change (%, negative = inhibition) at 10uM.
# value in %; strip the unit string

>>> obs_value("CC(/C=C/c1ccco1)=N\\NC(=O)CNc1cccc(C)c1")
18.1

q: Suppose we examine the compound O=C(CSc1nc(=O)n(CCCN2CCOCC2)c2c1CCCC2)Nc1ccc(F)cc1 ; what hERG current change (%, negative = inhibition) at 10uM value has been reported?
a: -43.7

q: Try this compound too: CCCCN(C1CCS(=O)(=O)C1)S(=O)(=O)c1cccs1 (centres unmarked)
a: -7.11

q: Try this compound too: Cc1ccc(NC(=S)NC2CC3CCC(C2)N3Cc2ccco2)cc1C (centres unmarked)
a: -36.1

q: Try this compound too: CCN(CC)S(=O)(=O)c1cc(OC)c(C)cc1C
a: -5.58

q: Try this compound too: Cc1cccc(NC(=S)NC2CC3CCC(C2)N3Cc2ccco2)c1 (centres unmarked)
a: -43.5

q: Try this compound too: Cc1ccc(NC(=S)NC2CC3CCCC(C2)N3Cc2ccco2)cc1 (centres unmarked)
a: -52.8

q: Try this compound too: Cc1ccccc1OC(C)C(=O)NC1CCCC1 (centres unmarked)
a: -2.63

q: Try this compound too: Cc1cc(C)cc(NC(=S)NC2CC3CCC(C2)N3Cc2ccco2)c1 (centres unmarked)
a: -71.5

q: Try this compound too: CCc1ccc(NC(=S)NC2CC3CCC(C2)N3Cc2ccco2)cc1 (centres unmarked)
a: -45.5

q: Try this compound too: O=C(Cn1nc(-c2ccccc2)ccc1=O)Nc1ccc(N2CCN(C(=O)c3cccs3)CC2)cc1
a: -18.5
